system: CCRIS mutagenicity, Ames/micronucleus/aberration tests; experiment: CCRIS mutagenicity studies; details: Test System: MOUSE LYMPHOMA; Strain/Indicator: L5178Y (TK+/TK-); Metabolic Activation: NONE; Method: SUSPENSION/PLATE
Calls of active or inactive are those of the source. The rule behind the calls is not given here.
Respond with a class label; see active, inactive

Answered examples (5):
Nc1ncnc2c1ncn2[C@H]1C[C@H](O)[C@@H](CO)O1; active
S=C1NCCN1; inactive
OCC(Br)CBr (stereo not drawn); active
CCCNC(=O)NS(=O)(=O)c1ccc(Cl)cc1; inactive
Nc1ncc([N+](=O)[O-])s1; active

## Input Please state the recorded outcome for this molecule: Cc1ccc(N(C)C)cc1
## Output active

## Input Please state the recorded outcome for this molecule: C=CC(=O)OCCOCCOCCOCCOC(=O)C=C
## Output active

## Input Please state the recorded outcome for this molecule: c1ccccc1
## Output inactive

## Input Please state the recorded outcome for this molecule: CC(Br)(CCl)CBr (stereo not drawn)
## Output active

## Input Please state the recorded outcome for this molecule: Cc1cc(C)c(S(=O)(=O)O)cc1N=Nc1cc(S(=O)(=O)O)c2ccccc2c1O
## Output inactive

## Input Please state the recorded outcome for this molecule: O=C1c2c(O)ccc(O)c2C(=O)c2c(NCCO)ccc(NCCO)c21
## Output active
